# SYSTEM_NAME: Cereblon/Casein kinase I alpha (Homo sapiens) (UniProt P48729+Q96SW2)
# Sequence (P48729 2-337 limits assumed): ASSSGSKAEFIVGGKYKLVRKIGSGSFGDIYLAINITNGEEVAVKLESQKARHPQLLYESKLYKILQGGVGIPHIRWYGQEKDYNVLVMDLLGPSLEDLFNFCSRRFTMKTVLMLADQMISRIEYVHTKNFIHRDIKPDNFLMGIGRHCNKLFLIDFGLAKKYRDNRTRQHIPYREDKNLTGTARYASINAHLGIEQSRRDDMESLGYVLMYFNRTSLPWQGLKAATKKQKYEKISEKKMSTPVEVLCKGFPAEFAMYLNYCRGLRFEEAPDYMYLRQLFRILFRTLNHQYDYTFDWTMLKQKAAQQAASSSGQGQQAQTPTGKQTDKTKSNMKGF
# Sequence (Q96SW2 whole entry partner): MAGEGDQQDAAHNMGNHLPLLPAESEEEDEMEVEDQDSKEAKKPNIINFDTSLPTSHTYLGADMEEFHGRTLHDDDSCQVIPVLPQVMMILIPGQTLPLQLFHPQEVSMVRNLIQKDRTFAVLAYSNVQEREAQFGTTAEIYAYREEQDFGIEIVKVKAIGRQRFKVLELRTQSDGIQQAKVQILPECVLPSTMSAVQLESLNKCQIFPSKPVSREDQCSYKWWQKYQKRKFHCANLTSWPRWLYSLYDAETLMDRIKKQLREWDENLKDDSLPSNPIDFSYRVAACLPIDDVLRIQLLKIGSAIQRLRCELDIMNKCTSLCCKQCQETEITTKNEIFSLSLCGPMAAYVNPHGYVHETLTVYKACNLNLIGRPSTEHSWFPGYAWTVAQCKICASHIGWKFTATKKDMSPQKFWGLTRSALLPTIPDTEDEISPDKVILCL
# RUN_DESCRIPTION: Protac activity at CRBN/CK1alpha (unknown origin) transfected in HEK293T cells at 100 nM incubated for 24 hrs by flow cytometry analysis relative to control
# Assay type: cell-based
ATTRIBUTE_MEASURED: Activity (%)

[[record]]
compound = "COc1ccc2c(c1)C=C(C(=O)Nc1ccc3c(c1)CN(C1CCC(=O)NC1=O)C3=O)CO2 (stereo not drawn)"
units_label = "%"
data_value = 66

[[record]]
compound = "O=C1CCC(N2Cc3cc(NC(=O)C4=Cc5ccc(OC(F)(F)F)cc5OC4)ccc3C2=O)C(=O)N1 (stereo not drawn)"
units_label = "%"
data_value = 66

[[record]]
compound = "CC(=O)Nc1ccc2c(c1)CN(C1CCC(=O)NC1=O)C2=O (stereo not drawn)"
units_label = "%"
data_value = 12


---

microsomal CLint reference
# RUN_DESCRIPTION: Metabolic stability in mouse liver microsomes assessed as intrinsic clearance preincubated with NADPH and UDPGA for 5 mins followed by compound addition and measured upto 60 mins by LC-MS/MS analysis
# Assay type: ADME, Microsome
# PARTICULARS: read-out: CLH
ATTRIBUTE_MEASURED: microsomal CLint

[[record]]
compound = "COc1ccc2cc(C(=O)Nc3ccc4c(c3)CN(C3CCC(=O)NC3=O)C4=O)ccc2c1 (stereo unspecified)"
data_value = "7.4 µL/min/mg"

[[record]]
compound = "COc1cnc2cc(C(=O)Nc3ccc4c(c3)CN(C3CCC(=O)NC3=O)C4=O)ccc2c1 (stereo unspecified)"
data_value = "< 5.4 µL/min/mg"

[[record]]
compound = "COc1ccc2nc(C(=O)Nc3ccc4c(c3)CN(C3CCC(=O)NC3=O)C4=O)ccc2c1 (stereo unspecified)"
data_value = "57.9 µL/min/mg"

[[record]]
compound = "CCOc1ccc2cc(C(=O)Nc3ccc4c(c3)CN(C3CCC(=O)NC3=O)C4=O)ccc2c1 (stereo unspecified)"
data_value = "< 5.4 µL/min/mg"

[[record]]
compound = "CCCCOc1ccc2cc(C(=O)Nc3ccc4c(c3)CN(C3CCC(=O)NC3=O)C4=O)ccc2c1 (stereo unspecified)"
data_value = "< 5.4 µL/min/mg"

[[record]]
compound = "COc1ccc2cc(C(=O)Nc3ccc4c(c3)CN(C3CCC(=O)NC3=O)C4=O)ncc2c1 (stereo unspecified)"
data_value = "6.6 µL/min/mg"

[[record]]
compound = "CC(C)Oc1ccc2cc(C(=O)Nc3ccc4c(c3)CN(C3CCC(=O)NC3=O)C4=O)ccc2c1 (stereo unspecified)"
data_value = "< 5.4 µL/min/mg"

[[record]]
compound = "COc1ccc2cc(C(=O)Nc3ccc4c(c3)CN(C3CCC(=O)NC3=O)C4=O)ccc2n1 (stereo unspecified)"
data_value = "< 5.4 µL/min/mg"

[[record]]
compound = "O=C1CCC(N2Cc3cc(NC(=O)c4ccc5ccccc5c4)ccc3C2=O)C(=O)N1 (stereo unspecified)"
data_value = "< 5.4 µL/min/mg"

[[record]]
compound = "COc1ccc2cc(C(=O)Nc3ccc4c(c3)CN(C3CCC(=O)NC3=O)C4=O)cnc2c1 (stereo unspecified)"
data_value = "< 5.4 µL/min/mg"

[[record]]
compound = "[2H]C([2H])([2H])Oc1ccc2cc(C(=O)Nc3ccc4c(c3)CN(C3CCC(=O)NC3=O)C4=O)ccc2c1 (stereo unspecified)"
data_value = "< 5.4 µL/min/mg"

